- TEST_TARGET: MCR-1 (Homo sapiens)
- Construct: expressed in transfected cells; host or cells: HEK 293
- METHOD_DESCRIPTION: Melanocortin receptor binding assay, competition with 125I-HP 467, HEK 293 cells expressing hMCR-1
- EXPERIMENTAL_PARAMETERS: displacement of 125I-HP 467 at 10 μM isoquinoline compound; second of duplicate
Examples of molecules with documented % Disp. MC-1 10 μM follow.
MEASURED_ATTRIBUTE: % Disp. MC-1 10 μM (%)

CNC(CN)CN1Cc2ccccc2C(CNC2CCCCC2)C1c1ccc(SC)cc1 (stereo not shown) [TRG 2405-147]	38.9
NCCN1Cc2ccccc2C(CNC2CCCCC2)C1c1ccc(-c2ccccc2)cc1 (stereo not shown) [TRG 2405-61]	61.9
CNC(CN)CN1Cc2ccccc2C(CNC2CCCCC2)C1c1ccc(C)cc1 (stereo not shown) [TRG 2405-159]	53.5
NCCN1Cc2ccccc2C(CNC2CCCCC2)C1c1ccccc1 (mixture of isomers) [TRG 2405-1]	24.1

====

- TEST_TARGET: MCR-4 (Homo sapiens)
- Construct: expressed in transfected cells; host or cells: HEK 293
- Sequence (P32245 whole entry): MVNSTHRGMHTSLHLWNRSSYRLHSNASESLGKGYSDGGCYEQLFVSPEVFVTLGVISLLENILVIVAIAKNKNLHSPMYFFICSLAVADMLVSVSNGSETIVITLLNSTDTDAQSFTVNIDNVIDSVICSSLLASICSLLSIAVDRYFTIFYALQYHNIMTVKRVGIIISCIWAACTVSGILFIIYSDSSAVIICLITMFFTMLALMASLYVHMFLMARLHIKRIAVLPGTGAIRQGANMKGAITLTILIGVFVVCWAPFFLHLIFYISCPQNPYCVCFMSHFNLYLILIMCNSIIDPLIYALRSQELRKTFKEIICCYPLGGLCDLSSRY
- METHOD_DESCRIPTION: Melanocortin receptor binding assay, competition with 125I-HP 467, HEK 293 cells expressing hMCR-4
- EXPERIMENTAL_PARAMETERS: inhibition of binding of 125I-HP 467, HEK 293 cells expressing MCR-4; TRG 2414 library; read-out: MC-4 IC50
pIC50: −log10 of the molar value.
Examples of molecules with documented pIC50 follow.
MEASURED_ATTRIBUTE: pIC50

COc1ccc(CNCC2c3ccccc3CN(CCCCC(CN)NCc3ccccc3)C2c2cc(C(F)(F)F)cc(C(F)(F)F)c2)cc1 (stereo not drawn)	5.27
COc1ccccc1CCNCC1c2ccccc2CN(CCCCC(CN)NCCc2ccccc2)C1c1cc(C(F)(F)F)cc(C(F)(F)F)c1 (stereo not drawn)	5.31
NCC(CCCCN1Cc2ccccc2C(CNCc2ccccc2)C1c1cc(C(F)(F)F)cc(C(F)(F)F)c1)NCCc1ccccc1 (stereo not drawn)	5.03
CC(C)Cc1ccc(C(C)CNC(CN)CCCCN2Cc3ccccc3C(CNC3CCCCC3)C2c2ccc(Cl)cc2Cl)cc1 (stereo not drawn)	4.76
COc1ccc(CNCC2c3ccccc3CN(CCCCC(CN)NCc3ccccc3)C2c2ccc(Cl)cc2Cl)cc1 (stereo not drawn)	5.21
NCC(CCCCN1Cc2ccccc2C(CNC2CCCCCC2)C1c1ccc(Oc2ccccc2)cc1)NCc1ccccc1 (stereo not drawn)	5.05
CCOc1ccccc1CNCC1c2ccccc2CN(CCCCC(CN)NCC(C)c2ccc(CC(C)C)cc2)C1c1cc(C(F)(F)F)cc(C(F)(F)F)c1 (stereo not drawn)	4.41
COc1ccc(CCNCC2c3ccccc3CN(CCCCC(CN)NCC(C)c3ccc(CC(C)C)cc3)C2c2cccc(Oc3ccccc3)c2)cc1 (stereo not drawn)	4.31
CCCOc1ccc(C2C(CNCCc3ccccc3OC)c3ccccc3CN2CCCCC(CN)NCC(C)c2ccc(CC(C)C)cc2)cc1 (stereo not drawn)	4.40
COc1ccc(CCNCC2c3ccccc3CN(CCCCC(CN)NCCc3ccccc3)C2c2ccc(Oc3ccccc3)cc2)cc1 (mixture of isomers)	4.78
COc1ccc(CCNCC2c3ccccc3CN(CCCCC(N)CN)C2c2cccc(Oc3ccccc3)c2)cc1 (stereo not drawn)	5.57
NCC(N)CCCCN1Cc2ccccc2C(CNCCc2cccc(Cl)c2)C1c1cc(C(F)(F)F)cc(C(F)(F)F)c1 (stereo not drawn)	6.19
COc1ccc(CNCC2c3ccccc3CN(CCCCC(N)CN)C2c2ccc(Cl)cc2Cl)cc1 (stereo not drawn)	5.80
CCCOc1ccc(C2C(CNCc3cccc(OC)c3)c3ccccc3CN2CCCCC(CN)NCCc2ccccc2)cc1 (stereo not drawn)	5.09
CCOc1ccccc1CNCC1c2ccccc2CN(CCCCC(CN)NCc2ccccc2)C1c1ccc(Oc2ccccc2)cc1 (stereo not drawn)	4.57
NCC(N)CCCCN1Cc2ccccc2C(CNCCc2cccc(Cl)c2)C1c1cccc(Oc2ccccc2)c1 (stereo not drawn)	5.42
NCC(CCCCN1Cc2ccccc2C(CNC2CCCCC2)C1c1ccc(Cl)cc1Cl)NCc1ccccc1 (mixture of isomers)	5.36
COc1ccccc1CCNCC1c2ccccc2CN(CCCCC(CN)NCc2ccccc2)C1c1cc(C(F)(F)F)cc(C(F)(F)F)c1 (stereo not drawn)	5.67
CC(C)Cc1ccc(C(C)CNC(CN)CCCCN2Cc3ccccc3C(CNCc3ccccc3)C2c2cc(C(F)(F)F)cc(C(F)(F)F)c2)cc1 (stereo not drawn)	4.35
COc1ccccc1CCNCC1c2ccccc2CN(CCCCC(CN)NCc2ccccc2)C1c1cccc(Oc2ccccc2)c1 (stereo not drawn)	5.56
CCOc1ccccc1CNCC1c2ccccc2CN(CCCCC(CN)NCC(C)c2ccc(CC(C)C)cc2)C1c1ccc(Cl)cc1Cl (stereo not drawn)	4.86
CC(C)Cc1ccc(C(C)CNC(CN)CCCCN2Cc3ccccc3C(CNCc3ccccc3)C2c2cccc(Oc3ccccc3)c2)cc1 (stereo not drawn)	4.29
NCC(CCCCN1Cc2ccccc2C(CNCc2ccccc2C(F)(F)F)C1c1ccc(Cl)cc1Cl)NCCc1ccccc1 (stereo not drawn)	4.53
CCOc1ccccc1CNCC1c2ccccc2CN(CCCCC(CN)NCc2ccccc2)C1c1cccc(Oc2ccccc2)c1 (stereo not drawn)	4.95
NCC(CCCCN1Cc2ccccc2C(CNC2CCCCCC2)C1c1cc(C(F)(F)F)cc(C(F)(F)F)c1)NCCc1ccccc1 (stereo not drawn)	5.34
CCCOc1ccc(C2C(CNCCc3cccc(Cl)c3)c3ccccc3CN2CCCCC(CN)NCCc2ccccc2)cc1 (mixture of isomers)	5.27
NCC(CCCCN1Cc2ccccc2C(CNC2CCCCC2)C1c1cc(C(F)(F)F)cc(C(F)(F)F)c1)NCCc1ccccc1 (stereo not drawn)	5.37

====

- TEST_TARGET: MCR-1 (Homo sapiens, UniProt Q01726)
- Construct: expressed in transfected cells; host or cells: HEK 293
- Sequence (Q01726 whole entry): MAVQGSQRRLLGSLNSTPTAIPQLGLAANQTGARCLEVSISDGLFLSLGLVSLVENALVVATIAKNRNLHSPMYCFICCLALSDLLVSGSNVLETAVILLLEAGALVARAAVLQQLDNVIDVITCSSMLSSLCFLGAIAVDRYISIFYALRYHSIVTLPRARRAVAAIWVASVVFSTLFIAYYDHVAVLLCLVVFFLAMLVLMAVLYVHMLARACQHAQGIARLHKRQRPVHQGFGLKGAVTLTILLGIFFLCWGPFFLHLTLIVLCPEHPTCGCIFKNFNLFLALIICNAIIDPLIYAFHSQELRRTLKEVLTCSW
- METHOD_DESCRIPTION: Melanocortin receptor binding assay, competition with 125I-HP 467, HEK 293 cells expressing hMCR-1
- EXPERIMENTAL_PARAMETERS: displacement of 125I-HP 467 at 10 μM isoquinoline compound; second of duplicate
// thresholds for % Disp. MC-1 10 μM classes: A: < 40%; B: ≥ 40% and < 50%; C: ≥ 50%

NCCN1Cc2ccccc2C(CNC2CCCCC2)C1c1ccccc1CN (stereo not drawn) [TRG 2405-15]	C
CNC(CN)CN1Cc2ccccc2C(CNC2CCCCC2)C1c1ccc([N+](=O)[O-])cc1 (mixture of isomers) [TRG 2405-161]	C
CNC(CN)CN1Cc2ccccc2C(CNC2CCCCC2)C1c1ccncc1 (stereo not drawn) [TRG 2405-164]	A
CNC(CN)CN1Cc2ccccc2C(CNC2CCCCC2)C1c1cccc(Br)c1 (stereo not drawn) [TRG 2405-127]	C
CNC(CN)CN1Cc2ccccc2C(CNC2CCCCC2)C1c1ccc2ccccc2c1 (stereo not drawn) [TRG 2405-110]	C
NCCN1Cc2ccccc2C(CNC2CCCCC2)C1c1cccc(O)c1 (stereo not drawn) [TRG 2405-43]	A
COc1cccc(C2C(CNC3CCCCC3)c3ccccc3CN2CCN)c1 (stereo not drawn) [TRG 2405-45]	A
NCCN1Cc2ccccc2C(CNC2CCCCC2)C1c1cccc(Br)c1 (stereo not drawn) [TRG 2405-37]	C
CNC(CN)CN1Cc2ccccc2C(CNC2CCCCC2)C1c1cccc(Oc2ccc(Cl)c(Cl)c2)c1 (stereo not drawn) [TRG 2405-123]	C
CNC(CN)CN1Cc2ccccc2C(CNC2CCCCC2)C1c1ncc[nH]1 (stereo not drawn) [TRG 2405-108]	B
NCCN1Cc2ccccc2C(CNC2CCCCC2)C1c1cccc(CN)c1 (stereo not drawn) [TRG 2405-39]	A
NCCN1Cc2ccccc2C(CNC2CCCCC2)C1c1ccccc1Br (stereo not drawn) [TRG 2405-12]	B
NCCN1Cc2ccccc2C(CNC2CCCCC2)C1c1c(F)cccc1Cl (stereo not drawn) [TRG 2405-14]	A
COc1ccc(C2C(CNC3CCCCC3)c3ccccc3CN2CCN)cc1F (stereo not drawn) [TRG 2405-40]	A
CNC(CN)CN1Cc2ccccc2C(CNC2CCCCC2)C1c1cccc2c1OCO2 (stereo not drawn) [TRG 2405-98]	B
COc1ccc(C2C(CNC3CCCCC3)c3ccccc3CN2CCN)cc1 (stereo not drawn) [TRG 2405-60]	B
Cc1cccc(C2C(CNC3CCCCC3)c3ccccc3CN2CCN)n1 (stereo not drawn) [TRG 2405-81]	B

====

- TEST_TARGET: MCR-4 (Homo sapiens)
- Construct: expressed in transfected cells; host or cells: HEK 293
- METHOD_DESCRIPTION: Melanocortin receptor binding assay, competition with 125I-HP 467, HEK 293 cells expressing hMCR-4
- EXPERIMENTAL_PARAMETERS: TRG 2414 library; inhibition of binding of 125I-HP 467, HEK 293 cells expressing MCR-4; read-out: MC-4 IC50
Examples of molecules with documented IC50 follow.
MEASURED_ATTRIBUTE: IC50 (µM)

COc1cccc(CNCC2c3ccccc3CN(CCCCC(CN)NCC(C)c3ccc(CC(C)C)cc3)C2c2ccccc2Br)c1 (centres unmarked)	35.1
NCC(CCCCN1Cc2ccccc2C(CNCc2ccccc2C(F)(F)F)C1c1ccccc1Br)NCCc1ccccc1 (centres unmarked)	34.1
CCCOc1ccc(C2C(CNCCc3ccc(OC)cc3)c3ccccc3CN2CCCCC(CN)NCc2ccccc2)cc1 (centres unmarked)	1.47
COc1cccc(CNCC2c3ccccc3CN(CCCCC(CN)NCCc3ccccc3)C2c2ccccc2Br)c1 (centres unmarked)	10.8
CCOc1ccccc1CNCC1c2ccccc2CN(CCCCC(CN)NCCc2ccccc2)C1c1ccccc1Br (centres unmarked)	6.2
NCC(CCCCN1Cc2ccccc2C(CNC2CCCCCC2)C1c1ccccc1Br)NCc1ccccc1 (centres unmarked)	5.35
NCC(CCCCN1Cc2ccccc2C(CNC2CCCCC2)C1c1ccccc1Br)NCCc1ccccc1 (centres unmarked)	5.22
NCC(CCCCN1Cc2ccccc2C(CNCc2ccccc2)C1c1ccccc1Br)NCc1ccccc1 (centres unmarked)	9.13
